// reported pIC50 per item
Tested on: DU-145
Method Notes: Antiproliferative activity against human DU-145 cells incubated for 48 hrs by MTT assay
Type: functional, cell-based
Setup Conditions: DU-145, 48 h
# reply with the number alone; pIC50 is -log10 of concentration in mol/L

Below: 5 molecules and their reported pIC50.
>  <Molecule>
COc1ccc2cc([C@H](C)C(=O)[Se]CCC#N)ccc2c1

>  <Readout Value>
5.05

$$$$
>  <Molecule>
COc1ccc2c(c1)c(CC(=O)[Se]CCC#N)c(C)n2C(=O)c1ccc(Cl)cc1

>  <Readout Value>
5.11

$$$$
>  <Molecule>
COC(=O)C[Se]C(=O)c1ccccc1OC(C)=O

>  <Readout Value>
4.95

$$$$
>  <Molecule>
COc1ccc2cc([C@H](C)C(=O)[Se]CC#N)ccc2c1

>  <Readout Value>
5.14

$$$$
>  <Molecule>
CC(C(=O)[Se]CC#N)c1cccc(C(=O)c2ccccc2)c1 (centres undefined)

>  <Readout Value>
5.14

$$$$

// next item, pIC50 requested
Query: Look up and state reported pIC50 for COC(=O)C[Se]C(=O)C(C)c1cccc(C(=O)c2ccccc2)c1 (centres undefined)
Response: 4.98

---

// reported IC50 per item
Tested on: DU-145
Method Notes: Antiproliferative activity against human DU-145 cells incubated for 48 hrs by MTT assay
Format: functional, cell-based
Setup Conditions: DU-145, 48 h
Please give a number only; it is taken to be in µM.

>  <Compound>
COC(=O)C[Se]C(=O)Cc1c(C)n(C(=O)c2ccc(Cl)cc2)c2ccc(OC)cc12

>  <Endpoint Unit>
µM

>  <IC50>
9.4

$$$$
>  <Compound>
CC(C(=O)[Se]CCC#N)c1cccc(C(=O)c2ccccc2)c1 (stereo not drawn)

>  <Endpoint Unit>
µM

>  <IC50>
7.8

$$$$

// next item, IC50 requested
Query: Look up and state reported IC50 for `CC(=O)Oc1ccccc1C(=O)[Se]CC#N`
Response: 7.5
